Read-out: Cytochrome P450 (CYP1A2), CYP1A2 (gene 1544)
Assay details: LTEA_HepaRG_CYP1A2: Life Technologies and Expression Analysis (LTEA) Assay for Cytochrome P450 (CYP1A2) using HepaRG (AID 2283479)
Condition details: mRNA level, 48 h; actives raise or lower the signal
Calls of active or inactive are those of the source. The calls were made as follows: active = hit-call score of the fitted dose curve at least 0.9, where 1 is the maximum; inactive = score below 0.9.
Possible outcomes: 1 = active, -1 = inactive

| Compound | Category |
| --- | --- |
| O=c1[nH]sc2ccccc12 | 1 |
| CC(C)(O)c1ccc(CNC(=O)c2cccnc2Oc2ccc3nonc3c2)cc1 | 1 |
| CC[C@@H]1C[C@H](N(Cc2cc(C(F)(F)F)cc(C(F)(F)F)c2)C(C)=O)c2cc(C(F)(F)F)ccc2N1C(=O)OC(C)C | 1 |
| CCCCCCCCOc1ccc(C(=O)c2ccccc2)c(O)c1 | 1 |
| Cc1cccc2ccccc12 | -1 |
| OCCO | -1 |
| CCCOC(=O)c1cc(O)c(O)c(O)c1 | -1 |
| CC1(C)NC(=O)N(c2ccc([N+](=O)[O-])c(C(F)(F)F)c2)C1=O | 1 |
| CC1=CC(=O)/C(=C(/C)O)C(=O)O1 | -1 |
| CCCCCCCCCCCCO | -1 |
| CCN(CC)C(=O)c1cc(S(=O)(=O)Cc2ccccc2)c(N2CCC(c3ccccc3)CC2)cc1N(CC)CCN(C)C | 1 |
| COCC(C)OCC(C)OCC(C)O (stereo not given) | -1 |
| CN(C)c1ccc(C(=C2C=CC(=[N+](C)C)C=C2)c2ccc(N(C)C)cc2)cc1 | 1 |
| Cc1c2ccccc2c(C)c2c1ccc1ccccc12 | 1 |
| C[C@]12CC[C@@H]3c4ccc(O)cc4CC[C@H]3[C@@H]1CC[C@H]2O | -1 |
| CCCC(=O)OCCC(C)C | 1 |
| CCCCCc1ccc(N)cc1 | 1 |
| O=c1ccc2ccccc2o1 | -1 |
| O=C=NCCCCCCN=C=O | -1 |
| CCCCCCCCOC(=O)c1cc(O)c(O)c(O)c1 | 1 |
| NCc1cccc(C2CCN(C(=O)c3ccc(C#Cc4ccccc4F)o3)CC2)c1 | 1 |
| CN1C(=O)N(c2ccccc2Br)Cc2cnc(Nc3ccc4c(c3)OCC(CO)O4)nc21 (stereo not given) | 1 |
| CC(C)(C)c1cc(/C=C2\SC(N)=NC2=O)cc(C(C)(C)C)c1O | -1 |
| Clc1cc(Cl)c2c(c1)N=C1CCCCCN1C2 | 1 |
| O=C1c2ccccc2C(=O)N1CCc1noc(-c2ccc(CN3CCCCCC3)s2)n1 | 1 |
| COc1cc(C(=O)NC2CCN(C)CC2)ccc1Nc1ncc2c(n1)N(C1CCCC1)CC(F)(F)C(=O)N2C | 1 |
| CCCCOC(=O)c1ccc(O)cc1 | -1 |
| c1ccc(C[n+]2cccc3ccccc32)cc1 | -1 |
| CCN(Cc1cccc(S(=O)(=O)O)c1)c1ccc(C(=C2C=CC(=[N+](CC)Cc3cccc(S(=O)(=O)O)c3)C=C2)c2ccccc2S(=O)(=O)[O-])cc1 | -1 |
| CCN(Cc1cccnc1)C(=O)c1cccc(Cl)c1[C@]1(C)C(=O)N(Cc2ccc(OC)cc2OC)c2ccc(Cl)cc21 | 1 |
| Cc1cc(F)ccc1-c1cc(N2CC[C@@H](O)[C@H]2CO)ncc1N(C)C(=O)C(C)(C)c1cc(C(F)(F)F)cc(C(F)(F)F)c1 | 1 |
| c1ccc2n[nH]nc2c1 | -1 |
| CCCCCCCC[Si](OCC)(OCC)OCC | -1 |
| O=C1CCC(C2CCCCC2)CC1 | 1 |
| Cc1oc2c(NC(=O)c3c(Cl)cccc3Cl)cccc2c1C(C)(C)O | 1 |
